assay summary: Volume of distribution at steady state in Sprague-Dawley rat at 2 mg/kg, iv measured upto 24 hrs by LC-MS/MS analysis
Format: ADME, organism-based
setup conditions: in vivo, read-out: Vdss
measured parameter: Vd (L/kg)

1) C[C@H](Nc1ncnc2[nH]cnc12)c1nc2cccc(Cl)c2c(=O)n1-c1ccccc1: 1.66

====

Reported Cmax values for a set of compounds
assay summary: Cmax in BALB/C mouse at 1 mg/kg, iv measured upto 24 hrs by LC-MS analysis
Format: ADME, organism-based
Parameters: route intravenous, dose 1 mg/kg, time <= 24
setup conditions: in vivo
measured parameter: Cmax (nM)

1. C[C@H](Nc1nc(N)nc(N)c1C#N)c1c(-c2ccccc2)c(=O)n2cc(F)ccc2c1C1CC1: 1400
2. C[C@H](Nc1nc(N)nc(N)c1C#N)c1cc(=O)n2cc(F)ccc2c1-c1cc(F)cc(F)c1: 1100
3. Cc1c([C@H](C)Nc2nc(N)nc(N)c2C#N)c(-c2ccccc2)c(=O)n2cc(F)ccc12: 1300
4. C[C@H](Nc1nc(N)nc(N)c1C#N)c1c(-c2ccccc2)c(=O)n2cc(F)ccc2c1-c1ccc(F)cc1: 2300
5. C[C@H](Nc1nc(N)nc(N)c1C#N)c1cc2ccc(F)cn2c(=O)c1-c1ccccc1: 2300
